- tested-on: RAC-alpha serine/threonine-protein kinase (Homo sapiens, UniProt P31749)
- Sequence (P31749 whole entry): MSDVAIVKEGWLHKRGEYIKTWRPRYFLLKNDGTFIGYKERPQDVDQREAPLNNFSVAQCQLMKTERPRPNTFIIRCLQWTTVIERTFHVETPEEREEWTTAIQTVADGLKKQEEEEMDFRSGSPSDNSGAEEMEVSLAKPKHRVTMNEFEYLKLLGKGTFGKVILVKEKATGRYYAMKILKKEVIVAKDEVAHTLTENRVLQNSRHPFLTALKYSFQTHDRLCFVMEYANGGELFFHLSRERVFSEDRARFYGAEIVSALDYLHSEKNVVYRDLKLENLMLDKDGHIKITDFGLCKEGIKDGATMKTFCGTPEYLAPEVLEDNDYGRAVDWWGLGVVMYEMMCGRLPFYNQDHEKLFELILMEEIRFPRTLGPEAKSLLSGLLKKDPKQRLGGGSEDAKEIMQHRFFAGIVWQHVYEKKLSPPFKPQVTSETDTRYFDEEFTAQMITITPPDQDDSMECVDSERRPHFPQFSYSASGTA
Note to self: IC50 under 200 nM means 1 (yes), ties and anything higher get 0 (no).

| structure-notation | group |
| --- | --- |
| Nc1nnc(-c2cnc(-c3ccc(CN4CCC(n5ncc6c(N)ncnc65)CC4)cc3)c(-c3ccccc3)c2)s1 | 1 (yes) |
| Nc1ncnc2c1cnn2C1CCN(Cc2ccc(-c3ncc(-c4ncccn4)cc3-c3ccccc3)cc2)CC1 | 0 (no) |
| Nc1nnc(-c2cnc(-c3ccc(CN4CCC(c5cc(-c6ccccn6)[nH]n5)CC4)cc3)c(-c3ccccc3)c2)s1 | 1 (yes) |
| Nc1nnc(-c2cnc(-c3ccc(CN4CCC(n5cc(-c6cnccn6)cn5)CC4)cc3)c(-c3ccccc3)c2)s1 | 1 (yes) |
| Nc1nnc(-c2cnc(-c3ccc(CN4CCC(n5cc(-c6ccccn6)cn5)CC4)cc3)c(-c3ccccc3)c2)s1 | 0 (no) |
| Nc1ncnc2c1ncn2C1CCN(Cc2ccc(-c3ncc(-c4nnn[nH]4)cc3-c3ccccc3)cc2)CC1 | 0 (no) |
| Nc1ncnc2c1cnn2C1CCN(Cc2ccc(-c3ncc(-c4nnc[nH]4)cc3-c3ccccc3)cc2)CC1 | 1 (yes) |
